- TESTED SYSTEM: T1, DcR3 (UniProt O95407 30-300, limits assumed)
- T1 construct: the construct is not described; also called decoy receptor DcR3; TNFRSF6B
- T1 sequence (looked up): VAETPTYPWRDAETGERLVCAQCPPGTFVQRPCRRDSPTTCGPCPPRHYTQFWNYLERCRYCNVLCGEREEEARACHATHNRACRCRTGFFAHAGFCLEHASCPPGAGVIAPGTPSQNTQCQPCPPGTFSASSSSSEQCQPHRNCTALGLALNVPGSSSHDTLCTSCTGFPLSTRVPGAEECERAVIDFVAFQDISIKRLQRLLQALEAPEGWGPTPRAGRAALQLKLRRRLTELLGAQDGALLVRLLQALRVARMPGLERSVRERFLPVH
- ASSAY NOTES: ELISA, DcR3
Task for the reader: assign each of the following binders its reported Rel EC50.

{"columns": ["BINDER", "ENDPOINT RESULT"],
 "data": [
  ["TL1W47 (His-TEV-TL1A E241A) (ligand, also called TL1W47 (E241A)) HHHHHHENLYFQGLKGQEFAPSHQQVYAPLRADGDKPRAHLTVVRQTPTQHFKNQFPALHWEHELGLAFTKNRMNYTNKFLLIPESGDYFIYSQVTFRGMTSECSEIRQAGRPNKPDSITVVITKVTDSYPEPTQLLMGTKSVCEVGSNWFQPIYLGAMFSLQEGDKLMVNVSDISLVDYTKADKTFFGAFLL", "285 ratio (head: nM)"]
]}

Go through the list and state Rel EC50 for each entry.
1. TL1W42 (His-TEV-TL1A F114A) (ligand, also called TL1W42 (F114A)) HHHHHHENLYFQGLKGQEFAPSHQQVYAPLRADGDKPRAHLTVVRQTPTQHFKNQAPALHWEHELGLAFTKNRMNYTNKFLLIPESGDYFIYSQVTFRGMTSECSEIRQAGRPNKPDSITVVITKVTDSYPEPTQLLMGTKSVCEVGSNWFQPIYLGAMFSLQEGDKLMVNVSDISLVDYTKEDKTFFGAFLL
2. TL1W121 (His-TEV-TL1A S206E) (ligand, also called TL1W121 (S206E)) HHHHHHENLYFQGLKGQEFAPSHQQVYAPLRADGDKPRAHLTVVRQTPTQHFKNQFPALHWEHELGLAFTKNRMNYTNKFLLIPESGDYFIYSQVTFRGMTSECSEIRQAGRPNKPDSITVVITKVTDSYPEPTQLLMGTKSVCEVGENWFQPIYLGAMFSLQEGDKLMVNVSDISLVDYTKEDKTFFGAFLL
3. TL1W30 (His-TEV-hTL1A 72-251 N112E) (ligand, also called TL1W30 (N112E)) HHHHHHENLYFQGLKGQEFAPSHQQVYAPLRADGDKPRAHLTVVRQTPTQHFKEQFPALHWEHELGLAFTKNRMNYTNKFLLIPESGDYFIYSQVTFRGMTSECSEIRQAGRPNKPDSITVVITKVTDSYPEPTQLLMGTKSVCEVGSNWFQPIYLGAMFSLQEGDKLMVNVSDISLVDYTKEDKTFFGAFLL
4. TL1W90 (His-TEV-TL1A R156K) (ligand, also called TL1W90 (R156K)) HHHHHHENLYFQGLKGQEFAPSHQQVYAPLRADGDKPRAHLTVVRQTPTQHFKNQFPALHWEHELGLAFTKNRMNYTNKFLLIPESGDYFIYSQVTFKGMTSECSEIRQAGRPNKPDSITVVITKVTDSYPEPTQLLMGTKSVCEVGSNWFQPIYLGAMFSLQEGDKLMVNVSDISLVDYTKEDKTFFGAFLL
5. TL1W83 (His-TEV-TL1A E120K) (ligand, also called TL1W83 (E120K)) HHHHHHENLYFQGLKGQEFAPSHQQVYAPLRADGDKPRAHLTVVRQTPTQHFKNQFPALHWKHELGLAFTKNRMNYTNKFLLIPESGDYFIYSQVTFRGMTSECSEIRQAGRPNKPDSITVVITKVTDSYPEPTQLLMGTKSVCEVGSNWFQPIYLGAMFSLQEGDKLMVNVSDISLVDYTKEDKTFFGAFLL

OUTPUT:
1: 2.5 ratio (head: nM); 2: 3.7 ratio (head: nM); 3: 1 ratio (head: nM); 4: 2.4 ratio (head: nM); 5: 0.5 ratio (head: nM)
